- test description: logP determination by HPLC (EEC-Directive 79/831 Annex V. A8)
- Type: physicochemical
- test context: gradient method, acetonitrile/0.1% aqueous phosphoric acid
endpoint label: logP
Field format: numeric only.

compound	logP
CON=C(C(=O)N(C)C(=O)OCCBr)c1ccccc1COc1ccccc1C [Example 37]	4.6

Noted for CON=C(C(=O)N(C)SC(F)(Cl)Cl)c1ccccc1COc1cccc(-c2ccccc2)c1 [Example 65] : its logP reads 5.77

The measured logP associated with CON=C(C(=O)N(C)SC(F)(Cl)Cl)c1ccccc1Oc1ncnc(Oc2ccc(C)cc2C)c1F [Example 90] reads 5.41

Recorded logP (compound CON=C(C(=O)N(C)Sc1ccc(Cl)cc1)c1ccccc1COc1ccccc1C [Example 20] ): 5.53

For this compound ( CON=C(C(=O)N(C)S(C)(=O)=O)c1ccccc1COc1ccccc1C [Example 18] ), measured logP is 3.82

In plain terms, CON=C(C(=O)N(C)C(=O)N1CCOCC1)c1ccccc1COc1ccccc1C [Example 36] has a documented logP of 3.32

Value of logP reported for the compound CON=C(C(=O)N(C)SC(F)(Cl)Cl)c1ccccc1Oc1ncnc(Oc2cc(C)ccc2C(C)C)c1F [Example 124] is 5.88

The recorded logP for entry CON=C(C(=O)N(C)SC(F)(F)F)c1ccccc1Oc1ccccc1 [Example 50] equals 4.38

Memo: CCSCc1ccccc1OCc1ccccc1C(=NOC)C(=O)N(C)SC(F)(Cl)Cl [Example 58] , reported logP: 5.59
